Drug uptake overview
System: Medulla
Experiment: Drug uptake in anesthetized cynomolgus monkey brain medulla after 115 mins postinjection
Format: ADME, organism-based, Macaca fascicularis
Details: in vivo

>  <molecule>
O=C(OCC[18F])C1C2CCC(CC1c1cccc(/C=C\Br)c1)N2 (stereo not given)

>  <Drug uptake>
4.28

$$$$
>  <molecule>
O=C(OCC[18F])C1C2CCC(CC1c1cccc(/C=C\I)c1)N2 (stereo not given)

>  <Drug uptake>
3.43

$$$$
>  <molecule>
O=C(OCCC[18F])C1C2CCC(CC1c1cccc(/C=C\Br)c1)N2 (stereo not given)

>  <Drug uptake>
5.07

$$$$
>  <molecule>
O=C(OCCC[18F])C1C2CCC(CC1c1cccc(/C=C\I)c1)N2 (stereo not given)

>  <Drug uptake>
4.59

$$$$
>  <molecule>
O=C(OCC[18F])C1C2CCC(CC1c1ccc(/C=C\I)cc1)N2 (stereo not given)

>  <Drug uptake>
3.8

$$$$
